Reference source: patent US6337344B1

Structures can show the parent of a compound that is named as a salt.
Quick record of Ki values for human factor Xa (Homo sapiens, UniProt P00742).
Numbers only, in nM.

Answered examples (3):
C[N+](C)(C)c1ccc(CNC(=O)c2cc3ccccc3n2Cc2cccc(C(=N)N)c2)cc1 [Example 4, trifluoroacetate trifluoroacetic acid …] | 90
Cc1cccc2c1cc(C(=O)NCc1cccc(C(=N)N)c1)n2Cc1cccc(C(=N)N)c1.O=C(O)C(F)(F)F.O=C(O)C(F)(F)F [Example 47, trifluoroacetic acid salt] | 7
CC(=O)O.CC(=O)[O-].C[N+](C)(C)c1ccc(CNC(=O)c2cc3c(O)cccc3n2Cc2cccc(C(=N)N)c2)cc1 [Example 39, acetate acetic acid salt] | 7

Problem: Fill blank: measured Ki of the compound COc1cccc2c1cc(C(=O)NC(c1ccccc1)c1cc[n+](C)cc1)n2Cc1cccc(C(=N)N)c1.O=C(O)C(F)(F)F.O=C([O-])C(F)(F)F (racemic) [Example 24, trifluoroacetate trifluoroacetic acid …] is ____.
Solution: 110
